Cited source for all entries: the supplement of paper PMC12669032

# Test system: Fusobacterium nucleatum subsp. animalis
# procedure_text: growth AUC relative to DMSO control (median of replicates) (fraction); higher = more growth (less inhibition), active = hit call of the paper
# protocol_conditions: 20 µM; 24 h
Examples of compounds with documented growth AUC follow.

compound	measurement
Cc1nn(C)c(F)c1C(=O)Nc1ccccc1C(C)CC(C)C (stereo not drawn)	0.977 (inactive)
N#Cc1c(N)nc(NC2CC2)nc1N	0.994 (inactive)

With those in mind, consider the next compound.
-- ask Entry O=[N+]([O-])c1ccc(O)cc1 : reported growth AUC = ?
-- reply 0.979 (inactive)

* * *

# Test system: Roseburia intestinalis
# procedure_text: growth AUC relative to DMSO control (median of replicates) (fraction); higher = more growth (less inhibition), active = hit call of the paper
# protocol_conditions: 20 µM; 24 h
Examples of compounds with documented growth AUC follow.
# answer = number (no unit)

compound	growth AUC
CC(C)OC(=O)[C@@H](C)N(C(=O)c1ccccc1)c1ccc(F)c(Cl)c1	0.999
CCOC(=O)NCCOc1ccc(Oc2ccccc2)cc1	0.984
O=c1cc(Cl)[nH]nc1-c1ccccc1	0.977
COC1CCC2(CC1)NC(=O)C(O)(c1cc(C)ccc1C)C2=O (centres undefined)	1.01

With those in mind, consider the next compound.
-- ask State its growth AUC on Roseburia intestinalis: CC1(C)C(C(=O)OC(C#N)c2cccc(Oc3ccccc3)c2)C1C(Br)C(Br)(Br)Br (centres undefined)
-- reply 0.932

* * *

# Tested on: Collinsella aerofaciens
# procedure_text: growth AUC relative to DMSO control (median of replicates) (fraction); higher = more growth (less inhibition), active = hit call of the paper
# protocol_conditions: 20 µM; 24 h
Examples of compounds with documented growth AUC follow.
# answer = number (no unit)

Examples with answers:
compound	growth AUC
CCCCOCCOC(=O)COc1ccc(Cl)cc1Cl	0.96
CN(C(=O)NC(C)(C)c1ccccc1)c1ccccc1	0.969
O=C(O)COc1ccc(Cl)cc1CO	0.96
O=C1NCCN1	1.02
O=[N+]([O-])c1ccc(O)cc1	1.05
CC(C)(C)Nc1nc(N)nc(Cl)n1	0.998

-- ask Entry COC1CCC2(CC1)NC(=O)C(c1cc(C)ccc1C)C2O (configuration not stated) : reported growth AUC = ?
-- reply 1.05

* * *

Examples of molecules with documented growth AUC follow.
# Test system: Lactobacillus paracasei
# procedure_text: growth AUC relative to DMSO control (median of replicates) (fraction); higher = more growth (less inhibition), active = hit call of the paper
# protocol_conditions: 20 µM; 24 h
# answer = number (no unit)

Examples with answers:
CC(C)NS(=O)(=O)NC(=O)c1cc(-n2c(=O)cc(C(F)(F)F)[nH]c2=O)c(F)cc1Cl 0.991
CCCCCCCC/C=C\CCCCCCCC(N)=O 1.02
N#Cc1c(N)nc(NC2CC2)nc1N 0.972
O=C(Nc1ccc(F)cc1-c1ccc(Cl)c(Cl)c1)c1cn[nH]c1C(F)F 0.953
O=[N+]([O-])c1ccc2c(c1)Cc1ccccc1-2 0.998

-- ask Entry CCSC(=O)COc1ccc(Cl)cc1C : reported growth AUC = ?
-- reply 1.08

-- ask Also S=C([S-])NCCNC(=S)[S-].[Zn+2] ?
-- reply 1.01

-- ask Also Nc1nc2ccccc2[nH]1 ?
-- reply 0.969

* * *

# System: Escherichia coli ED1a
# procedure_text: growth AUC relative to DMSO control (median of replicates) (fraction); higher = more growth (less inhibition), active = hit call of the paper
# protocol_conditions: 20 µM; 24 h
Values of growth AUC greater than or equal to 1 map to MET; values below map to NOT MET.

cpd_smiles	target_of_assay	assigned_category
CCNc1nc(NCC)nc(OC)n1	Escherichia coli ED1a	MET

Here is another compound to look at.
-- ask Answer whether growth AUC of FC(F)(F)/N=C1\SC(=Nc2ccccc2)N(c2ccccc2)\C1=N\C(F)(F)F is greater than or equal to 1.
-- reply NOT MET

* * *

# Tested on: Coprococcus comes
# procedure_text: growth AUC relative to DMSO control (median of replicates) (fraction); higher = more growth (less inhibition), active = hit call of the paper
# protocol_conditions: 20 µM; 24 h
readout_label: growth AUC
# answer = number (no unit)

Examples with answers:
compound	target_of_assay	growth AUC
CCCCN(C)C(=O)Nc1ccc(Cl)c(Cl)c1	Coprococcus comes	1.04
CON=C(Cc1cccnc1)c1ccc(Cl)cc1Cl	Coprococcus comes	0.94
CCc1cccc(C)c1N(C(=O)CS(=O)(=O)[O-])C(C)COC.[Na+] (centres undefined)	Coprococcus comes	0.948
CC(C)CNC(=O)N1CCNC1=O	Coprococcus comes	1.01
CCNc1nc(N)[nH]c(=O)n1	Coprococcus comes	1.02

-- ask Entry CCN(CC)C(=O)c1cccc(C)c1 : reported growth AUC = ?
-- reply 0.974

-- ask Also CC(C)([CH2][Sn]([CH2]C(C)(C)c1ccccc1)([CH2]C(C)(C)c1ccccc1)[O][Sn]([CH2]C(C)(C)c1ccccc1)([CH2]C(C)(C)c1ccccc1)[CH2]C(C)(C)c1ccccc1)c1ccccc1 ?
-- reply 0.98

* * *

# Tested on: Bifidobacterium longum subsp. longum
# procedure_text: growth AUC relative to DMSO control (median of replicates) (fraction); higher = more growth (less inhibition), active = hit call of the paper
# protocol_conditions: 20 µM; 24 h
Examples of molecules with documented growth AUC follow.
# answer = number (no unit)

Examples with answers:
molecule	target_of_assay	growth AUC
CC1(C)C(=O)Oc2ccc(OS(C)(=O)=O)cc21	Bifidobacterium longum subsp. longum	0.988
CCCCCCCCc1c(CC)nc2ncnn2c1N	Bifidobacterium longum subsp. longum	0.995
CCc1cccc(C)c1N(C(=O)CS(=O)(=O)[O-])C(C)COC.[Na+] (stereo not given)	Bifidobacterium longum subsp. longum	0.954

With those in mind, consider the next molecule.
-- ask State its growth AUC on Bifidobacterium longum subsp. longum: Oc1ccc2nc(-c3cscn3)[nH]c2c1
-- reply 1.01

* * *

# Test system: Lactobacillus gasseri
# procedure_text: growth AUC relative to DMSO control (median of replicates) (fraction); higher = more growth (less inhibition), active = hit call of the paper
# protocol_conditions: 20 µM; 24 h
Examples of compounds with documented growth AUC follow.
# answer = number (no unit)

Examples with answers:
compound	readout_label	measurement
CC(C)([CH2][Sn]([CH2]C(C)(C)c1ccccc1)([CH2]C(C)(C)c1ccccc1)[O][Sn]([CH2]C(C)(C)c1ccccc1)([CH2]C(C)(C)c1ccccc1)[CH2]C(C)(C)c1ccccc1)c1ccccc1	growth AUC	0.963
Cc1nn(C)c(OCC(=O)c2ccccc2)c1C(=O)c1ccc(Cl)cc1Cl	growth AUC	1.02
O=C(NCc1ncc(C(F)(F)F)cc1Cl)c1c(Cl)cccc1Cl	growth AUC	1.04
[O-][n+]1nc(-n2ccnc2)nc2ccc(Cl)cc21	growth AUC	0.831
CCc1cc(C(=O)O)cc(CC)c1C1C(=O)N2CCOCCN2C1=O	growth AUC	1.11
CN(C)C(=O)SCCCCOc1ccccc1	growth AUC	1.01
O=C(Nc1ccc(F)cc1)c1cccc(Oc2cccc(C(F)(F)F)c2)n1	growth AUC	0.87
CC1=C(C(=O)Nc2ccccc2)CCCO1	growth AUC	0.952
CN(C)C(=O)Nc1ccccc1	growth AUC	1.03
Cc1ccc(C)c(O)c1	growth AUC	1.02

With those in mind, consider the next compound.
-- ask Entry O=C(O)COc1cc(N2C(=O)C3=C(CCCC3)C2=O)c(F)cc1Cl : reported growth AUC = ?
-- reply 0.967

* * *

# System: Parabacteroides distasonis
# procedure_text: growth AUC relative to DMSO control (median of replicates) (fraction); higher = more growth (less inhibition), active = hit call of the paper
# protocol_conditions: 20 µM; 24 h
readout_label: growth AUC

molecule	growth AUC
O=S(=O)(Oc1ccc(Cl)cc1)c1ccccc1	0.974 (inactive)
Cc1c(C(=O)c2c[nH]n(C)c2=O)ccc(S(C)(=O)=O)c1C1=NOCC1	1.04 (inactive)
O=C(O)CCCc1c[nH]c2ccccc12	0.922 (inactive)
O.O=C(Nc1ccc(Cl)c(Cl)c1)Nc1cc(Cl)ccc1Oc1ccc(Cl)cc1S(=O)(=O)[O-].[Na+]	0.494 (active)

-- ask Entry Cn1cc(C(=O)Nc2ccccc2-c2cc(F)c(F)c(F)c2)c(C(F)F)n1 : reported growth AUC = ?
-- reply 0.916 (inactive)

-- ask Also CNC(=O)/C(=N/OC)c1ccccc1CO/N=C(C)/C(=N/OC)C(/C)=N/OC ?
-- reply 0.997 (inactive)

-- ask Also O=c1cc(Cl)[nH]nc1-c1ccccc1 ?
-- reply 1.02 (inactive)

-- ask Also COC(=O)CC(NC(=O)[C@@H](NC(=O)OC(C)C)C(C)C)c1ccc(Cl)cc1 (stereo partly drawn) ?
-- reply 0.954 (inactive)

* * *

Examples of compounds with documented growth AUC follow.
# Test system: Bacteroides thetaiotaomicron
# procedure_text: growth AUC relative to DMSO control (median of replicates) (fraction); higher = more growth (less inhibition), active = hit call of the paper
# protocol_conditions: 20 µM; 24 h
# answer = number (no unit)

Examples with answers:
compound	growth AUC
CCOC(=O)[C@@H](C)Oc1ccc(Oc2nc3ccc(Cl)cc3o2)cc1	1.01
CNc1nc(NC(C)C)nc(SC)n1	1.01
Br[C@@H]1CC[C@H](Br)[C@H](Br)CC[C@@H](Br)[C@@H](Br)CC[C@H]1Br	1.01
Oc1ccc2nc(-c3cscn3)[nH]c2c1	0.985
CCOC(=O)[C@@H](C)Oc1ccc(Oc2cnc3cc(Cl)ccc3n2)cc1	0.998

-- ask Entry FC(F)(F)/N=C1\SC(=Nc2ccccc2)N(c2ccccc2)\C1=N\C(F)(F)F : reported growth AUC = ?
-- reply 1.01

-- ask Also CN(C)C(=O)Nc1ccccc1 ?
-- reply 0.994
